Tested on: human conjunctival tissue mast cells
Experiment: Inhibition of anti-human IgE induced histamine release from human conjunctival tissue mast cells (HCTMC), histamine by RIA
Type: cell-based
Details: Mast cell, bracketed value, equals the mean of the four single determinations in the same cell, read-out: IC50 (nM), value in square brackets
Recorded Metric: IC50 (nM)
The reply should be a number in nM, with the unit left off.

Per the reported human conjunctival tissue mast cells data, "C=CCNC(=O)Nc1ccccc1SSc1ccccc1NC(=O)NCC=C" has IC50 of 194
